B1: GLT8D2 (parent)
chain: QEAKLLHWNGRHKPWDFPSVHNDL

Variants of: B1
PROTOCOL: protein stability index of a GFP-peptide fusion (GPS, HEK-293T) (PSI 1-6); higher = more stable;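 also: lentivirally expressed fusions sorted by FACS into six bins by GFP to DsRed ratio, PSI derived from sequencing read proportions per bin multiplied by bin number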
TEST_CONDITIONS: c terminus: a fixed tail appended
Reported protein stability index values are given for each entry in this list.
Answer as a number with no unit attached.

- QDAKLLHWNGRHKPWDFPSVHNDL [E2D]: 2.65
- QEAKLLHWGGRHKPWDFPSVHNDL [N9G]: 2.59
- QEAKLLHWNIRHKPWDFPSVHNDL [G10I]: 2.48
- QEAKLDHWNGRHKPWDFPSVHNDL [L6D]: 2.79
- QTAKLLHWNGRHKPWDFPSVHNDL [E2T]: 2.18
- QEAKLLHWNGRHKPWDPPSVHNDL [F17P]: 3.24
- QEAKLLHWNGIHKPWDFPSVHNDL [R11I]: 2.76
- QEAKLLHWNGRHKPWHFPSVHNDL [D16H]: 2.09

**Query** Provide one value: measured protein stability index of QEAKLLHWNGRHKPWDFPSLHNDL [V20L]
**Result** 2.41

**Query** Provide one value: measured protein stability index of QEAKTLHWNGRHKPWDFPSVHNDL [L5T]
**Result** 2.81

**Query** Provide one value: measured protein stability index of QEAKPLHWNGRHKPWDFPSVHNDL [L5P]
**Result** 3.05
